System: panel of 140 standard cancer cell lines
experiment: ProliFiler-140 cancer cell line screen (CellTiterGlo, 72 h)
Assay type: cell-based
condition_info: read-out: IC50 [M] (ProliFiler-140); LOU-NH91 (Lung)
observable: IC50

IC50 of COc1cc2cc(C(=O)N3C[C@@H](CCl)c4c3cc(OC(=O)N3CCN(C(=O)CCC(=O)N5CCN(C)CC5)[C@H]5CSSC[C@H]53)c3ccccc43)[nH]c2c(OC)c1OC [P-SS66C-CBI-TMI] , assay on panel of 140 standard cancer cell lines, is 3.45e-08 M

* * *

Test system: panel of 140 standard cancer cell lines
experiment: ProliFiler-140 cancer cell line screen (CellTiterGlo, 72 h)
Type: cell-based
condition_info: Homo sapiens, OVCAR-3, OVCAR-3; read-out: IC50
Method: Incubations were performed for 72 h before automated viability readout with CellTiterGlo (Figure 8). End of Figure S11 (part 5 of 5): ProliFiler-140 cancer cell line screening for cytotoxicity of the prodrugs. 8-data-point dose response curves from CellTiter-Glo® viability readout. ProliFiler-140 cell line panel part V
observable: IC50
Put down the number, then write its unit next to it.

Form field, IC50 with panel of 140 standard cancer cell lines, item COc1cccc2c1C(=O)c1c(O)c3c(c(O)c1C2=O)C[C@@](O)(C(=O)CO)C[C@@H]3O[C@H]1C[C@H](N)[C@H](O)[C@H](C)O1 [doxorubicin, reference compound] : 370 nM
